- assay.method.text: Pharmacokinetics of CRDL in male hamsters following intravenous and oral administration
- Type: in vivo
- reported.conditions: PO (20 mg/kg); mean
- Experimental: The plasma concentration of CRDL was determined in male hamsters following intravenous or oral administration. Hamsters were given CRDL at 2 mg/kg i.v. or 20 mg/kg p.o. Blood samples were collected at the indicated time points and the plasma was isolated.
measured.property: AUC(0-∞) (ng·h/mL)
Field format: number, assumed ng·h/mL, no unit text.

Request the reported AUC(0-∞) associated with COc1cc2c(cc1OC)[C@H]1[C@@H](C)c3ccc(OC)c(OC)c3CN1CC2 [CRDL, 14R,13S-(+)-corydaline]
1070
